# System: S. aureus (MRSA) USA300
# method-description: microbe, parasite or virus in culture
# Assay type: cell-based, Staphylococcus aureus
# condition-details: S. aureus (MRSA) USA300 (R); shown in µM
Where a SMILES comes first, the peptide text is derived from it.
readout-label: Modal MIC

molecule: CC(C)C[C@H](NC(=O)[C@H](CCCCN)NC(=O)[C@H](CO)NC(=O)[C@H](CCCCN)NC(=O)[C@H](Cc1c[nH]c2ccccc12)NC(=O)[C@H](C)NC(=O)[C@H](CCCCN)NC(=O)[C@H](CCCCN)NC(=O)[C@H](CC(C)C)NC(=O)[C@H](Cc1ccccc1)NC(=O)[C@H](CO)NC(=O)CN)C(=O)N[C@@H](C)C(=O)N[C@@H](CCCCN)C(=O)N[C@@H](CCCCN)C(=O)N[C@@H](CC(C)C)C(=O)N[C@@H](CCCNC(=N)N)C(=O)N[C@@H](C)C(=O)N[C@@H](CCCCN)C(=O)NCC(N)=O [PS-PB-20a] (H-GSFLKKAWKSKLAKKLRAKG-NH2)
target-or-system: S. aureus (MRSA) USA300
result: > 55.7 µM
--
molecule: C[C@H](NC(=O)CNC(=O)[C@H](CCCCN)NC(=O)[C@@H](N)CS)C(=O)N[C@@H](Cc1ccccc1)C(=O)N[C@@H](CCCCN)C(=O)N[C@@H](CCC(N)=O)C(=O)N[C@H](C(=O)N[C@@H](CS)C(=O)N[C@@H](CCCCN)C(=O)N[C@@H](CS)C(=O)N[C@@H](Cc1ccc(O)cc1)C(N)=O)[C@@H](C)O [Os(11-22)a] (H-CKGAFKQTCKCY-NH2; N-terminus assumed)
target-or-system: S. aureus (MRSA) USA300
result: > 91.7 µM
--
molecule: CC[C@H](C)[C@H](N)C(=O)N[C@@H](CC(C)C)C(=O)N[C@@H](CCCCN)C(=O)N[C@@H](CCCCN)C(=O)N[C@H](C(=O)N[C@@H](Cc1c[nH]c2ccccc12)C(=O)N[C@@H](CCC(=O)O)C(=O)NCC(=O)N[C@H](C(=O)N[C@@H](CCCCN)C(=O)N[C@@H](CO)C(=O)N[C@@H](CC(C)C)C(=O)N[C@@H](Cc1ccccc1)C(N)=O)[C@@H](C)CC)[C@@H](C)CC [K3-IsCTa] (H-ILKKIWEGIKSLF-NH2)
target-or-system: S. aureus (MRSA) USA300
result: 9.9 µM
--
molecule: CC[C@H](C)[C@H](NC(=O)[C@H](CCCCN)NC(=O)[C@H](CCC(=O)O)NC(=O)[C@H](Cc1c[nH]c2ccccc12)NC(=O)[C@H](Cc1ccccc1)NC(=O)[C@H](CCCCN)NC(=O)CNC(=O)[C@H](CC(C)C)NC(=O)[C@H](C)N)C(=O)N[C@@H](CCCCN)C(=O)N[C@@H](CO)C(=O)N[C@@H](CC(C)C)C(=O)N[C@@H](Cc1ccccc1)C(N)=O [A1F5K8-IsCTa] (H-ALGKFWEKIKSLF-NH2)
target-or-system: S. aureus (MRSA) USA300
result: 10 µM
